Give measured XC50 for each item. Keep answers brief.
Test system: Plasmodium falciparum
Protocol Text: GSK_TCMDC: Inhibition of Plasmodium falciparum 3D7 in whole erythrocytes, using parasite LDH activity as an index of growth.
Assay type: functional, organism-based
Measurement Conditions: Plasmodium falciparum, 3D7
Give bare numbers, in µM.

Examples with their reported XC50 follow.
>>> endpoint_result("COc1ccc(NC(=O)C2CCN(CCCCCNC(=O)/C=C/c3ccc(Cl)c(Cl)c3)CC2)cc1")
0.828
>>> endpoint_result("Cc1cc(=O)c(-c2ccc(OCc3ccc(OC(F)(F)F)cc3)cc2)c(C)[nH]1")
0.736
>>> endpoint_result("COc1cc2nc(N3CCC(CNC(=O)c4cc(Br)c(Br)s4)CC3)nc(N)c2cc1OC")
0.707
>>> endpoint_result("CCNc1cc(C(=O)N[C@@H](Cc2ccccc2)[C@H](O)CNCCC(C)c2ccccc2)cc(N2CCCC2=O)c1 (stereo not given in full)")
0.511
>>> endpoint_result("CN(/N=C/c1ccc(Cl)cc1)c1nc(NCCc2ccc(O)cc2)nc(N2CCNCC2)n1")
1.35

Kindly give each listed record's XC50.
1. CC(C)(C)Oc1ccc(C[C@@H]2NC3(C(=O)N(Cc4ccc(Cl)c(Cl)c4)c4ccccc43)C3C(=O)N(c4ccc(Br)cc4)C(=O)C32)cc1 (stereo not given in full)
2. O=C(Nc1ccc(C(F)(F)F)cc1)c1ccc(S(=O)(=O)NC2CCCN(CC3CCCCC3)C2)cc1 (stereo not given)
3. CCCCCC(C)N/C(=N/c1ccccc1Br)Nc1ccc([N+](=O)[O-])cc1O (stereo not given)
4. COc1cccc(Nc2nc(C)cc(NCc3ccc(-c4c(C)noc4C)cc3)n2)c1
5. Cc1[nH]c2cc(F)ccc2c(=O)c1Cc1ccc(Cl)cc1.Cc1[nH]c2cccc(F)c2c(=O)c1Cc1ccc(Cl)cc1
6. Cn1nc(-c2ccc(CN[C@@H]3CCc4ccc(O)cc43)cc2)c2cnc(NC3CCCC3)nc21
7. Cc1n[nH]c2ccc(-c3cc(OC[C@@H](N)Cc4ccccc4)cnc3-c3cc4ccccc4s3)cc12
8. CNc1nc(Nc2ccccc2C)nc2ccccc12

Reply:
1. 1.04
2. 0.718
3. 0.615
4. 0.88
5. 0.348
6. 1.12
7. 0.81
8. 0.443

Look at each compound and report its XC50.
1. O=C(Nc1ccc(-c2nc3ccccc3[nH]2)cc1)c1ccc(S(=O)(=O)N2CCCCC2)cc1
2. Cc1cccc(CNc2nc(C)cc(NCCC(=O)NCCOc3ccccc3)n2)c1
3. CCCNCc1ccc(-c2ccc(CN(Cc3ccc4c(c3)OCO4)C(=O)Cc3cccnc3)cc2)nc1
4. CC12CC3CC(C)(C1)CC(Nc1nc(N4CCOCC4)nc4ccccc14)(C3)C2
5. CN/C(=N\O)NCCN(C)C

Reply:
0.749
0.871
0.862
0.938
1.18

Dear reader, for each entry below, please note its XC50.
1. Cc1cccc2nc(O)c([N+](=O)[O-])c(O)c12
2. O=S(=O)(NCCN1CCCC1)c1ccc(-c2ccc(CNCc3ccc(F)cc3)cc2)cc1F
3. COc1cccc(CCNc2nc(NCc3ccccc3)c3cc(OC)c(OC)cc3n2)c1
4. O=C(c1cccc(-c2noc(C(F)(F)F)n2)c1)N1CCN(C(=O)c2ccc3cc[nH]c3c2)CC1
5. COc1ccc(CNC2CCN(C)CC2)cc1-c1ccc(S(=O)(=O)NCCc2ccccn2)cc1
6. COc1ccc(Nc2nccc(N3CCC(NC(=O)C(C)c4ccc(Cl)cc4)CC3)n2)cc1 (stereo not given)
7. NC(=O)c1cccc(Nc2nccc(Nc3ccc(Oc4ccc5ccccc5c4)cc3)n2)c1

Reply:
1. 0.911
2. 1.28
3. 0.321
4. 0.107
5. 1.09
6. 0.934
7. 0.81

====

Tested on: Plasmodium falciparum
Protocol Text: GSK_TCMDC: Inhibition of Plasmodium falciparum 3D7 in whole erythrocytes, using parasite LDH activity as an index of growth.
Format: functional, organism-based
Measurement Conditions: Plasmodium falciparum, 3D7
Give measured XC50 for each item. Keep answers brief.
Give bare numbers, in µM.

>>> endpoint_result("O=S(=O)(NCCN1CCCC1)c1ccc(-c2cccc(CNC3Cc4ccccc4C3)c2)cc1")
0.618
>>> endpoint_result("CCOC(=O)c1c(-c2ccccc2)c(C(=O)OCC)n2ccccc12")
0.614
>>> endpoint_result("Cc1ccc(Nc2nc(N/N=C/c3cccc(O)c3)nc(Nc3ccc([N+](=O)[O-])cc3)n2)cc1C")
0.735

For the next question, use this compound.
So, CCc1ccc(-n2cc(C(=O)c3cc(Br)ccc3O)cc(C#N)c2=O)cc1 ? Its XC50 was 0.797

====

Tested on: Plasmodium falciparum
Protocol Text: GSK_TCMDC: Inhibition of Plasmodium falciparum 3D7 in whole erythrocytes, using parasite LDH activity as an index of growth.
Assay type: functional, organism-based
Measurement Conditions: Plasmodium falciparum, 3D7
Measurement Kind: XC50

The examples below pair each entry with its known result.
>>> endpoint_result("COc1ccc(CN2CCN(CCOC(c3ccccc3)c3ccc(Cl)cc3)CC2)c(O)c1 (centres undefined)")
"713 nM"
>>> endpoint_result("O=S(=O)(Nc1cc2c(cc1OCc1ccccc1)CCN(C1CCC1)CC2)c1ccc(-c2ccc(Cl)cc2)cc1")
"1140 nM"
>>> endpoint_result("Clc1cc(Cl)cc(Nc2ccnc(Nc3cc(Cl)cc(Cl)c3)n2)c1")
"672 nM"
>>> endpoint_result("CC(=O)c1ccc2c(c1)CCN(CCC1CCC(NC(=O)c3cc4ccccc4[nH]3)CC1)CC2 (centres undefined)")
"982 nM"
>>> endpoint_result("O=S(=O)(c1ccc2cc[nH]c2c1)N1CCC[C@@H]1CCN1CCC(c2c[nH]c3cnccc23)CC1")
"1020 nM"

Please give XC50, item by item, for the list that follows.
1. NC1CCCN(Cc2cccc(-c3ccc(-c4nc5cc(F)ccc5[nH]4)cc3)c2)C1 (centres undefined)
2. CC(C)(C)c1ccc(CNC(=O)c2cc(CNC3CCNC3)ccc2O)cc1 (centres undefined)
3. CS(=O)(=O)CCNCc1nc(-c2ccc3c(Nc4ccc(Oc5ccccn5)cc4)ccnc3c2)cs1
4. CCNCc1ccc(-c2cccc(-c3nc4ccccc4[nH]3)c2)cc1
5. COc1ccc2c(c1)OC(C)(C)CC2=NOS(=O)(=O)c1ccc(C)cc1
6. N=C(NCc1ccccc1)Nc1nc(-c2ccc(OCCCn3ccnc3)cc2)cs1
7. Cc1ccccc1Nc1nc(NCc2ccccc2)nc2ccccc12

Reply:
["566 nM", "805 nM", "675 nM", "550 nM", "208 nM", "253 nM", "1020 nM"]

Go through the list and state XC50 for each entry.
1. COc1ccc(CC(C)NCC(O)c2cccc(Cl)c2F)cc1 (centres undefined)
2. O=C(NCC1CCN(Cc2cccc(C(F)(F)F)c2)C1)c1cc(-c2cccc(F)c2)cs1 (centres undefined)
3. CC(=O)Nc1cc(C(=O)Nc2cccc(-c3cccc(-c4nc5cccc(C)c5[nH]4)c3)c2)ccc1C
4. COc1cccc(C2CCN(CCCCNC(=O)c3ccc(NC(=O)c4ccc(Cl)cc4)cc3)CC2)c1
5. CCCCNC(=O)[C@H](CC1CCCCC1)NC(=O)c1ccc(O)c(-c2cccc(C(F)(F)F)c2)c1
6. Cc1ccc(S(=O)(=O)N2CCN(C(=O)c3cc(-c4ccccc4)n[nH]3)CC2)cc1
7. Cn1cc(CN2CCCC(COC(c3ccccc3)c3ccccc3)C2)cn1 (centres undefined)
8. Oc1ccc(CCNc2nc(NCCCOc3ccccc3-c3ccc(C(F)(F)F)cc3)nc(N3CCNCC3)n2)cc1

Reply:
["1080 nM", "1180 nM", "329 nM", "965 nM", "773 nM", "603 nM", "775 nM", "891 nM"]

Please go through the list and note XC50 for each compound.
1. CCCC(CNCc1cccc(I)c1)CNc1cc(=O)c2ccccc2[nH]1 (centres undefined)
2. Cc1ccc(C(=O)NC2CCN(CCNC(=O)Nc3cc(C)nc4ccccc34)CC2)cc1
3. CCN(CC)CCNC(=O)c1ccc(NC(=O)c2ccc(-c3cc(NC(=O)CC4CCCC4)ccc3C)cc2)cc1
4. COCCN1CCC(N(Cc2ccc(-c3ccc(OC(F)(F)F)cc3)cc2)C(=O)Cn2c(CCc3cccc(F)c3F)cc(=O)c3ccccc32)CC1

Reply:
1: 471 nM; 2: 490 nM; 3: 564 nM; 4: 1210 nM

====

Tested on: Plasmodium falciparum
Protocol Text: GSK_TCMDC: Inhibition of Plasmodium falciparum 3D7 in whole erythrocytes, using parasite LDH activity as an index of growth.
Type: functional, organism-based
Measurement Conditions: Plasmodium falciparum, 3D7
Measurement Kind: XC50

Quick one: give me XC50 for each item below, same order please.
1. CCCCC(CC)CN1C(=O)C(c2ccccc2)(c2ccccc2)N=C1N (stereo not drawn)
2. Cc1ccc(Oc2ccc(NC(=O)CNc3ccccc3N3CCCC3=O)cc2)cc1
3. CC(=O)N(Cc1ccc(CC(C)NCCc2cccc(Cl)c2)cc1)Cc1ccc(CC(C)NCCc2cccc(Cl)c2)cc1 (stereo not drawn)
4. Nc1c2c(nc3ccccc13)C(=Cc1ccc(O)cc1)CCC2
5. CC(C)(C)OC(=O)NCc1ccc(Nc2nnc(-c3cccc(OCC(=O)NCc4cc(C(F)(F)F)cc(C(F)(F)F)c4)c3)o2)cc1

Reply:
1: 189 nM; 2: 366 nM; 3: 783 nM; 4: 176 nM; 5: 832 nM

Value sought for every listed compound: XC50.
1. Nc1c(Cl)cc(C(O)CNCCCCCCOCCc2ccc(CO)s2)cc1Cl (stereo not drawn)
2. CC(=O)Nc1ccc(CN2CCC(CNC(=O)c3cc(-c4cccc(C(F)(F)F)c4)cs3)C2)cc1 (stereo not drawn)

Reply:
1: 1050 nM; 2: 1100 nM

I'm hoping you can list XC50 for every compound here, please.
1. O=C(Nc1cccc(Cl)c1Cl)N1CCc2cc3nccc(N4CCN5CCC[C@H]5C4)c3cc21
2. COc1ccc2nccc([C@@H](O)CN3CCC(NC(=O)c4ccc(Cl)c(Cl)c4)CC3)c2c1
3. O=C(Cn1c(SCc2cccc(F)c2F)cc(=O)c2ccccc21)N(CCn1ccnc1)Cc1ccc(-c2ccc(C(F)(F)F)cc2)cc1
4. OC(CNCc1ccco1)Cn1c2ccc(Br)cc2c2cc(Br)ccc21 (stereo not drawn)
5. COc1cc2nc(Nc3ccc4c(c3)OCCO4)nc(N)c2cc1OC

Reply:
1040 nM
614 nM
770 nM
1070 nM
469 nM

Each compound below has a reported value. Please supply its XC50.
1. CC(=O)Nc1nc(C)c(-c2csc(Nc3ccc(Cl)cc3)n2)s1
2. Cc1ccccc1C(=O)Nc1cccc(-c2nc3ncccn3c2C)c1
3. CCSc1nnc(C2CCCN(CC(=O)Nc3cc(C(F)(F)F)ccc3Cl)C2)n1CC (stereo not drawn)
4. COc1ccc(S(=O)(=O)NC2CCN(c3cc(C)nc(Nc4cccc(C#N)c4)n3)CC2)cc1
5. CN(C)CCOc1cccc(NC(=O)Nc2ccc(-c3ccccc3)cc2)c1
6. COc1cc(NC(=O)c2cccs2)c(C(=O)NCc2ccc(C)cc2)cc1OC
7. COc1cc(CC2c3cc(O)c(Cl)cc3CCN2C)c(OC)cc1C (stereo not drawn)
8. CNC(=O)c1ccc2nc(C3CC3)n(CC3CCN(S(=O)(=O)c4cccc(Cl)c4)CC3)c2c1

Reply:
258 nM
765 nM
232 nM
946 nM
878 nM
1360 nM
713 nM
651 nM
